Tested on: BC
Experiment: Cytotoxicity against human BC cells
Assay type: functional, cell-based
Active and inactive are the calls of the source. The calls are words filed in the database; no cut-off is given here.
OUTCOME_MEASURE: Activity

smiles_representation=CC(C)=CCC/C(C)=C/Cc1c([C@@H]2CC(=O)c3c(cc(O)c(CC=C(C)C)c3O)O2)ccc(O)c1O measured=inactive
smiles_representation=CC1=CC(=O)CC(C)(C)[C@@]1(O)/C=C/[C@@H](C)O measured=inactive
smiles_representation=COc1cc2c(c(O)c1CC=C(C)C)C(=O)C[C@@H](c1ccc(OC)c(OC)c1C/C=C(\C)CCC=C(C)C)O2 measured=inactive

Hey, just so you know, these numbers are from ChEMBL document CHEMBL1158792.
